// provenance: the Kinase Knowledgebase extract (Sharma et al. 2016)

- tested on: MAPK14 (human)
- assay: Inhibition of LPS Stimulated TNF Production by U937 Cells
- condition info: concentration not given here
measurement type: inhibition (%)
Give the quantity in %, number only.

query_smiles=Cc1cccc(C)c1NC(=O)N[C@H](C)c1[nH]nc(-c2ccc(F)cc2)c1-c1ccncc1 number=50
query_smiles=O=C(NCCc1[nH]nc(-c2ccc(F)cc2)c1-c1ccncc1)Nc1ccccc1OC(F)(F)F number=48
query_smiles=C[C@H](NS(=O)(=O)c1ccc(Cl)cc1Cl)c1[nH]nc(-c2ccc(F)cc2)c1-c1ccncc1 number=88
query_smiles=C[C@@H](NS(=O)(=O)c1ccc(-c2ccccc2)cc1)c1[nH]nc(-c2ccc(F)cc2)c1-c1ccncc1 number=95
query_smiles=O=C(NCc1[nH]nc(-c2ccc(F)cc2)c1-c1ccncc1)c1cccc(Br)c1 number=24
query_smiles=O=S(=O)(c1ccc(C(F)(F)F)cc1)N1CCC(c2[nH]nc(-c3ccc(F)cc3)c2-c2ccncc2)CC1 number=31
query_smiles=O=C(N[C@H](Cc1ccccc1)c1[nH]nc(-c2ccc(F)cc2)c1-c1ccncc1)c1cccnc1 number=38
query_smiles=C[C@H](NC(=O)Nc1ccccc1F)c1[nH]nc(-c2ccc(F)cc2)c1-c1ccncc1 number=38

Ask: Returns the measured inhibition for the input compound. Input: C[C@@H](NS(=O)(=O)c1ccc(Cl)cc1)c1[nH]nc(-c2ccc(F)cc2)c1-c1ccncc1
Result: 92

Ask: Returns the measured inhibition for the input compound. Input: CSc1cccc(NC(=O)NCc2[nH]nc(-c3ccc(F)cc3)c2-c2ccncc2)c1
Result: 12
